The values you see were collected from patent US20240384268A1.

Biological target: human TLR9 (Homo sapiens, UniProt Q9NR96)
Construct: HA; host or cells: 293XL-hTLR9-HA (HEK293)
Sequence (Q9NR96 26-1032): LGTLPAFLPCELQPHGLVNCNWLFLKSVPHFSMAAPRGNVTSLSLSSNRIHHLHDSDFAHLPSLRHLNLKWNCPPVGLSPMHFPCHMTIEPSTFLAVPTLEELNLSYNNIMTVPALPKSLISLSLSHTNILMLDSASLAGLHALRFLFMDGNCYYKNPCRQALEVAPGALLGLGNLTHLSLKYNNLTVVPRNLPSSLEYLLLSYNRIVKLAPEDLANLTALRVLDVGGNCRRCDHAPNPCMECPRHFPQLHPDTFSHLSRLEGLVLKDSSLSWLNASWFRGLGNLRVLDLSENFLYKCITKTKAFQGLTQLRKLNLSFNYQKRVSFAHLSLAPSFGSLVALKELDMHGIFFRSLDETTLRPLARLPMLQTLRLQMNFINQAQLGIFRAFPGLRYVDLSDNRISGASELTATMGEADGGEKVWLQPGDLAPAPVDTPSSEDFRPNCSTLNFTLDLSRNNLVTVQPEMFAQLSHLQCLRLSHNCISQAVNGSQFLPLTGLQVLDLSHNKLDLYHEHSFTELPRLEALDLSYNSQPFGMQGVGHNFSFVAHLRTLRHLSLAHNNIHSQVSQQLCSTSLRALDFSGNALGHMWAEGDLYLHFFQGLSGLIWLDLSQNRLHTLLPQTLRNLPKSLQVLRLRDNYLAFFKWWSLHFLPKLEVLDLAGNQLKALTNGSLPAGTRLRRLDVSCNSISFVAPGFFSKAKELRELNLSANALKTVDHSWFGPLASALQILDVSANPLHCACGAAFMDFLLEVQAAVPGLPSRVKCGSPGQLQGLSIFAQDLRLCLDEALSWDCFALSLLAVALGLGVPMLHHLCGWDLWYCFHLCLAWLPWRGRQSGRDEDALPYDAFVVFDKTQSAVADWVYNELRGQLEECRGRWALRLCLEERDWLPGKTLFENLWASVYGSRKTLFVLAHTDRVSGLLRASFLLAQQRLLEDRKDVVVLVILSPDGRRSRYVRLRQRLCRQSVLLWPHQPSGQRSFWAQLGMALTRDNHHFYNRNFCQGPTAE
Test: HEK-TLR9 NF-κB-luciferase reporter, ODN2006 stimulation
Format: cell-based
Conditions: HEK-TLR9; 500 nM ASO 45 min, then 200 nM ODN2006 overnight; percentage of ODN2006 only
In the oligonucleotide strings, read from the 5' end, every base follows the letter of its sugar. An asterisk marks phosphorothioate; unmarked linkages are phosphodiester. Other units and linkages are bracketed, terminal groups are in braces. A string of capitals states the bases alone. d = 2'-deoxy (DNA); m = 2'-O-methyl
Measurement type: TLR9-500 nM: averaged NF-κB-Luciferase relative to ODN2006 (%)

mG*mU*mC*mA*mA*A*C*C*T*A*G*A*A*A*G*mA*mA*mG*mC*mA (mG*mU*mC*mA*mA*dA*dC*dC*dT*dA*dG*dA*dA*dA*dG*mA*mA*mG*mC*mA; antisense) [[CDKN2B-AS1]1528] :: 68.13
mU*mC*mC*mC*mA*A*C*T*C*T*T*C*T*A*A*mC*mU*mC*mG*mU (mU*mC*mC*mC*mA*dA*dC*dT*dC*dT*dT*dC*dT*dA*dA*mC*mU*mC*mG*mU; antisense) [[LINC-PINT]1284 KL] :: 86.73
mU*mA*mA*mA*mA*T*A*A*G*G*G*G*A*A*T*mA*mG*mG*mG*mG (mU*mA*mA*mA*mA*dT*dA*dA*dG*dG*dG*dG*dA*dA*dT*mA*mG*mG*mG*mG) [[CDKN2B-AS1]80] :: 64.58
